Recorded values, source PubChem BioAssay (EPA / NIEHS).

# Read-out: Transforming growth factor beta 1 (TGFb1), TGFB1 (gene 7040)
# protocol-description: BSK_BE3C_TGFb1: BioMAP Diversity Plus: BE3C Assay for Transforming growth factor beta 1 (TGFb1) Biomarker Activity (AID 2283036;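 for Outcome: TGF-b1 protein level measured by ELISA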)
# experimental-parameters: primary human bronchial epithelial cells; actives raise or lower the signal
The source made the active and inactive calls. Rule for the calls: active = hit-call score of the fitted dose curve at least 0.9, where 1 is the maximum; inactive = score below 0.9.
Outcome codes: label 1 (active), label 0 (inactive)

> print(dat)
                                    molecule  assigned.class
 1                           CCOS(=O)(=O)OCC         label 0
 2                           Nc1ccc2ccccc2c1         label 0
 3                           ClC(Cl)c1ccccc1         label 0
 4                          CC(Cl)(Cl)C(=O)O         label 0
 5                  CCOC(=O)c1ccccc1C(=O)OCC         label 0
 6                             Nc1ccc(Cl)cc1         label 0
 7        OCC1CO1 (configuration not stated)         label 0
 8   CC(Cl)CN(C)C (configuration not stated)         label 0
 9                             O=C(O)C(Cl)Cl         label 0
10                      CCC(C)(C)c1ccc(O)cc1         label 0
11                                c1nc[nH]n1         label 0
12  CC(C)(C)c1ccccc1OP(=O)(Oc1ccccc1)Oc1ccccc1         label 0
13                              COP(N)(=S)OC         label 0
14                              COP(=O)(O)OC         label 0
15                CCOP(=S)(OCC)SCS(=O)(=O)CC         label 0
16                              CCCCc1ccccc1         label 0
17  N#Cc1c(-c2ccc(Cl)cc2)[nH]c(C(F)(F)F)c1Br         label 1

###

# Read-out: Interleukin-8 (IL8), CXCL8 (gene 3576)
# protocol-description: BSK_3C_IL8: BioMAP Diversity Plus: 3C Assay for Interleukin-8 (IL8) Biomarker Activity (AID 2283020)
# experimental-parameters: primary human endothelial cells (HUVEC); actives raise or lower the signal
Active and inactive are the calls of the source. The calls were made as follows: active = hit-call score of the fitted dose curve at least 0.9, where 1 is the maximum; inactive = score below 0.9.
measured-metric: AC50

> print(dat)
                                    molecule  measured.metric    value.reported
 1  CC(Cc1ccc(OCC(=O)O)cc1)NCC(O)c1csc(C(F)(F)F)n1 (centres undefined)             AC50          inactive
 2                                c1nc[nH]n1             AC50          inactive
 3           CCCCOCCOP(=O)(OCCOCCCC)OCCOCCCC             AC50          inactive
 4                CCNc1nc(Cl)nc(NC(C)(C)C)n1             AC50          inactive
 5                  Cc1ccc([N+](=O)[O-])cc1C             AC50          inactive
 6                                  COCCOCCO             AC50          inactive
 7  CCCCC(CC)COP(=O)(Oc1ccccc1)Oc1ccccc1 (centres undefined)             AC50  6.65 µM (active)
 8  OCC(F)(F)OC(F)(F)C(F)(F)OC(F)(F)C(F)(F)OC(F)(F)CO             AC50          inactive
 9  Cc1c([N+](=O)[O-])cc2c(c1[N+](=O)[O-])C(C)(C)CC2(C)C             AC50  2.03 µM (active)
10  O=C(O)C(F)(F)OC(F)(F)C(F)(F)OC(F)(F)C(=O)O             AC50          inactive
11                           CCOS(=O)(=O)OCC             AC50          inactive
12                             O=C(O)C(Cl)Cl             AC50          inactive
13                            CCCCN(CCCC)N=O             AC50          inactive
14            Cc1ccc2c(c1N)C(=O)c1ccccc1C2=O             AC50          inactive
15                 CC(C)Nc1ccc(Nc2ccccc2)cc1             AC50  12.8 µM (active)
16                     c1ccc2c(c1)sc1ccccc12             AC50          inactive
17          c1ccc(OP(Oc2ccccc2)Oc2ccccc2)cc1             AC50          inactive
18  CC(O)C(F)(F)C(F)(F)F (centres undefined)             AC50          inactive
19  CCC1(c2ccccc2)C(=O)N=C(O)NC1=O (centres undefined)             AC50          inactive
20                        CCOP(=S)(OCC)SCSCC             AC50          inactive
21                      O=[N+]([O-])c1ccccc1             AC50          inactive
22              O=[N+]([O-])c1ccc(Cl)c(Cl)c1             AC50          inactive
23  CCCN(CCC)c1c([N+](=O)[O-])cc(C(C)C)cc1[N+](=O)[O-]             AC50  31.2 µM (active)
24                              COP(N)(=S)OC             AC50          inactive
25  CCOP(=S)(NC(C)C)Oc1ccccc1C(=O)OC(C)C (centres undefined)             AC50          inactive
26                           Nc1ccc2ccccc2c1             AC50          inactive
27                      CCC(C)(C)c1ccc(O)cc1             AC50          inactive
28  O=P(OCC(Br)CBr)(OCC(Br)CBr)OCC(Br)CBr (centres undefined)             AC50  17.4 µM (active)
29     O=C(O)C(F)(F)OC(F)(F)C(F)(F)OC(F)(F)F             AC50          inactive

###

# Read-out: Interleukin 2 (IL2), IL2 (gene 3558)
# protocol-description: BSK_BT_xIL2: BioMAP Diversity Plus: BT Assay for Interleukin 2 (IL2) Biomarker Activity (AID 2284245)
# experimental-parameters: primary human B cells with PBMC
Active and inactive are the calls of the source. How the source made its calls: active means hit-call score of the fitted dose curve at least 0.9, where 1 is the maximum; inactive means score below 0.9.
measured-metric: AC50

> print(dat)
                                    compound  measured.metric    value.reported
 1            Cc1ccc2c(c1N)C(=O)c1ccccc1C2=O             AC50          inactive
 2  O=S(=O)(F)C(F)(F)C(F)(F)C(F)(F)C(F)(F)C(F)(F)C(F)(F)C(F)(F)C(F)(F)F             AC50          inactive
 3  N#Cc1c(-c2ccc(Cl)cc2)[nH]c(C(F)(F)F)c1Br             AC50  10.1 µM (active)
 4                O=C(O)C(F)(F)C(F)(F)C(=O)O             AC50          inactive
 5           CCOP(=S)(OCC)SCn1nnc2ccccc2c1=O             AC50          inactive
 6  CCCCC(CC)COP(=O)(Oc1ccccc1)Oc1ccccc1 (stereo unspecified)             AC50    20 µM (active)
 7              CCOP(=S)(OCC)SCSc1ccc(Cl)cc1             AC50          inactive
 8        OCC(F)(F)OC(F)(F)C(F)(F)OC(F)(F)CO             AC50          inactive
 9                     NC(=O)C(F)(F)C(F)(F)F             AC50          inactive
10  O=C(O)C(F)(F)OC(F)(F)C(F)(F)OC(F)(F)C(=O)O             AC50          inactive
11  CCCCC(CC)COC(=O)c1c(Br)c(Br)c(Br)c(Br)c1C(=O)OCC(CC)CCCC (stereo unspecified)             AC50          inactive
12           CCCCOCCOP(=O)(OCCOCCCC)OCCOCCCC             AC50          inactive
13                 CC(C)Nc1ccc(Nc2ccccc2)cc1             AC50  5.05 µM (active)
14                              COP(=O)(O)OC             AC50          inactive
15                           O=c1ssc(Cl)c1Cl             AC50  6.44 µM (active)
16                 Nc1ccc([N+](=O)[O-])cc1Cl             AC50          inactive
17                            CCOP(=S)(S)OCC             AC50          inactive
18         ClC(Cl)=C(c1ccc(Cl)cc1)c1ccccc1Cl             AC50  31.4 µM (active)
19     O=C(O)C(F)(F)OC(F)(F)C(F)(F)OC(F)(F)F             AC50          inactive
20     C=CC(=O)OCC(CC)(COC(=O)C=C)COC(=O)C=C             AC50  2.34 µM (active)
21                     c1ccc2c(c1)sc1ccccc12             AC50          inactive
